- experiment_summary: chemical genetic growth profiling, strain panel (AID 1159580);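 also: tested at 20 µM; growth read once vehicle control cultures reached saturation at 30 °C; 1 = growth at the plate median or of vehicle wells; lower values mean less growth of the strain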
- reported_conditions: S. cerevisiae deletion strains, growth OD, locus YDL185W, strain tfp1, stronger effect = lower value
Among all 5,500 compounds or so, about 2,000 (36%) were called active. Roughly 18% stayed inconclusive and do not appear here. The list shows a part of the results.
Listing: normalized growth of selected compounds

- compound: "CNCCc1ccccn1"
  normalized growth: 1.02
- compound: "CN1CCC(=C2c3ccccc3Sc3ccccc32)CC1"
  normalized growth: 1.01
- compound: "CN1CCC(=C2c3ccccc3CC(=O)c3sccc32)CC1"
  normalized growth: 1.01
- compound: "COC1=CC(=O)C[C@@H](C)[C@]12Oc1c(Cl)c(OC)cc(OC)c1C2=O"
  normalized growth: 0.972
- compound: "OCC(O)C(O)C(O)CO (stereo unspecified)"
  normalized growth: 0.982
- compound: "CCCCCCCCCCCCCCCC[N+](C)(C)C"
  normalized growth: 0.0826
- compound: "CO[C@H]1[C@H](O)[C@H](O[C@H]2CC[C@]3(C)C4CC[C@]5(C)C(C6=CC(=O)OC6)CC[C@]5(O)C4CC[C@@H]3C2)O[C@@H](C)[C@@H]1O (stereo partly specified)"
  normalized growth: 1
- compound: "C[N+](C)(C)CCCCCC[N+](C)(C)C"
  normalized growth: 0.984
- compound: "CN(C)c1ccc(C(=C2C=CC(=[N+](C)C)C=C2)c2ccc(N(C)C)cc2)cc1"
  normalized growth: 0.433
- compound: "COc1cc(NS(=O)(=O)c2ccc(N)cc2)nc(OC)n1"
  normalized growth: 0.982
- compound: "O=C(O)C1(O)C[C@@H](O)C(O)[C@H](O)C1 (stereo partly specified)"
  normalized growth: 1.02
